Data provenance: paper PMC7271024

Tested system: E. coli DNA gyrase (Escherichia coli, UniProt P0AES4+P0AES6)
Sequence (P0AES4 whole entry, one chain of several): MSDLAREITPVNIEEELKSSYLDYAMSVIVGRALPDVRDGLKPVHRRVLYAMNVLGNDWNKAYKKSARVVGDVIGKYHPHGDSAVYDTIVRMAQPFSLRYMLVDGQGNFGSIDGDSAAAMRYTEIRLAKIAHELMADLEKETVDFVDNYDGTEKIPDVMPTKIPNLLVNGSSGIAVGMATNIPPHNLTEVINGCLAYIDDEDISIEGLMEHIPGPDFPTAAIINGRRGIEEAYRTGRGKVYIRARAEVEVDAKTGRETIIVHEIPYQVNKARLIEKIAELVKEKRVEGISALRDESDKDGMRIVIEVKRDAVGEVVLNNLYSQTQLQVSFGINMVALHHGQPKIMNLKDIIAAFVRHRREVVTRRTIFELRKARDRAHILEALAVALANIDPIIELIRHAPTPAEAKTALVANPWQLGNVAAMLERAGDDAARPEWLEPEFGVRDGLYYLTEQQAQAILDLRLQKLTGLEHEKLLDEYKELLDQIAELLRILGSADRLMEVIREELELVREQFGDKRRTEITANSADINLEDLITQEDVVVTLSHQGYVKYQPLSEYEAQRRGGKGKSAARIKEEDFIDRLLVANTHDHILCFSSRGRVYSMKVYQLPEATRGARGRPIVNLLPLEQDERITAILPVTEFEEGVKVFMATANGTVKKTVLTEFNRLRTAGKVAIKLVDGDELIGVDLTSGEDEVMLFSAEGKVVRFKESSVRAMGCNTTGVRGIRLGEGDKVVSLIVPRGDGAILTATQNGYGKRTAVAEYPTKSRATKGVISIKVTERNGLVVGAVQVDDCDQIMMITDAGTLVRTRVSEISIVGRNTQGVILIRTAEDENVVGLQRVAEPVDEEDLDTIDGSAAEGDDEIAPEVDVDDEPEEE
Protocol text: Cell-free gyrase supercoiling inhibition assay
Condition summary: purified enzyme, cell-free supercoiling kit
Endpoint: pIC50
# log scale: pIC50 equals minus log10 of the concentration in mol/L

Using the record for "O=C(O)c1cn(-c2cccc3ccsc23)c2cc(N3CCNCC3)c(F)cc2c1=O" , state its measured pIC50.
5.20

====

System: K. pneumoniae M6
Protocol text: MIC, microdilution broth method
Assay type: cell-based, Klebsiella pneumoniae
Condition summary: Klebsiella pneumoniae, M6, –PMBN; ciprofloxacin-sensitive strain (S)
Can you tell me MIC for the items I'm about to list?

Answer with the recorded MIC of O=C(O)c1cn(Cc2cccc3ccoc23)c2cc(N3CCNCC3)c(F)cc2c1=O [Compound 6f] only.
> 128 µg/mL

Supply recorded MIC for CCn1cc(C(=O)O)c(=O)c2cc(F)c(N3CCNCC3)cc21 [Compound 6b, norfloxacin, reference compound] here.
0.25 to 0.5 µg/mL

Please look at this compound and report its MIC: O=C(O)c1cn(-c2cccc3ccsc23)c2cc(N3CCNCC3)c(F)cc2c1=O [Compound 6e]
8 µg/mL

Fill in MIC for record O=C(O)c1cn(Cc2cccc3ccsc23)c2cc(N3CCNCC3)c(F)cc2c1=O [Compound 6g]
> 128 µg/mL

Using known records, supply MIC for O=C(O)c1cn(Cc2ccccc2)c2cc(N3CCNCC3)c(F)cc2c1=O [Compound 6c]
1 µg/mL

Give the measured MIC for O=C(O)c1cn(-c2cccc3ccoc23)c2cc(N3CCNCC3)c(F)cc2c1=O [Compound 6d]
1 to 2 µg/mL
